Biological target: T1, CFP-ARC2 (TNKS1) (human, N-terminal mCerulean fusion omitted; conventional ARC limits)
T1 chain: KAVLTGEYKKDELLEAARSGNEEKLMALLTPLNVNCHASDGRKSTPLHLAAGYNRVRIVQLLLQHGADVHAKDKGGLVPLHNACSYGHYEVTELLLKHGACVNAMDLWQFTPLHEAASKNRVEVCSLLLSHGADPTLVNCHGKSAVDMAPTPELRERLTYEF
Assay: FRET or BRET; titration for Kd after Song et al.: CFP-fusion kept constant (50 nM to 1.1 µM), YFP-fusion 0-4,000 nM; FRET emission on excitation at 430 nm; assay buffer 10 mM Bis-Tris-Propane pH 7.0, 3% PEG20,000, 0.01% Triton-X100, 0.5 mM TCEP; 384-well plates, 4 replicates; the paper calls the constants an estimation
Conditions: both partners purified
pKd: −log10 of the molar value.
experimental_readout: pKd

[
  {
    "binder": "REAGDGEE (also called TBM (REAGDGEE); YFP-fused TBM; source: E. coli BL21(DE3), purified (IMAC); not shown: mCitrine (YFP), N-terminal, kept) [YFP-TBM]",
    "value_reported": 8.09
  }
]
